System: Fer (mouse);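 also: 11-residue human phosphosite peptides and single-mutation variants displayed on the E. coli surface, counted by deep sequencing, each peptide's frequency after selection divided by its frequency in the unselected input library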;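 also: frequency after pTyr selection over input frequency; kinase dosed for 20-30% of maximal phosphorylation in three min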
Experiment: phosphorylation enrichment, bacterial display (enrichment ratio); higher = better substrate or ligand; peptides without Tyr show the background
The entries below come with measured phosphorylation enrichment values attached.
observationType: phosphorylation enrichment

SVTCTYSSALN [TP53_Y126_P128S]	0.534
LHQSTYQCYDV [SLC7A14_Y693_R695C]	2.84
ITVPAYFNDLQ [HSPA9_Y196_S200L]	0.524
QDDFSYPSRQM [LDLR_Y847_G844D_YF]	0.492
GTQCSYLLSRK [UGT3A1_Y123]	0.43
CLGNQYVNVMN [SLC3A1_Y461_R456C]	0.475
AGQEKYSAMRD [HRAS_Y64_E63K]	0.37
GREFIYVDPMQ [PDGFRA_Y574_H570R_YF]	0.589
VKFLGYPPPEI [KDR_Y357_A352V_YF]	0.427
GFDHSYFFIAT [ESD_Y262_YF]	0.589
RTEAQYRFIFM [PTPN11_Y511_Q506R_YF]	0.546
KSSDVYVSFDC [SORL1_Y136_Y141C_YF]	0.733
FIPSNYVAEDR [FRK_Y104_YF]	0.427
RRVPVYGGRGA [QDPR_Y16_L14P]	0.626
FSGKAYADEEQ [CRIM1_Y826_R831Q]	0.529
SSLMKYQQNVS [EGFEM1P_Y160_P157L]	0.324
ANNEFYFRVCA	0.536
SLLTDCSPQLQ [OTC_Y345_Y345C]	0.522
EKKDIYKAGEQ [CFH_Y1008_V1007I]	0.362
SEHLTYLEFKS [RASGRP1_Y215]	0.62
KDQGTYEDFVE [MYL6_Y86_YF]	0.911
NQKGKYFNVER [ANAPC4_Y469_R465Q]	0.39

----------
Molecular target: Grb2 SH2 (UniProt P62993)
Sequence (P62993 whole entry, looked up): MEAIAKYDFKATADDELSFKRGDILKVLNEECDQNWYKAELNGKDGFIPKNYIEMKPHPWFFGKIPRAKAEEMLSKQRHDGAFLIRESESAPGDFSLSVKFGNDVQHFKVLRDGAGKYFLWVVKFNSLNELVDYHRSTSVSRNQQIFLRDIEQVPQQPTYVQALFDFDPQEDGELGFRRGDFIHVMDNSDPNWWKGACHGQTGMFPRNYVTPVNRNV
Assay: SH2 binding enrichment of the phosphorylated peptide, bacterial display (enrichment ratio); higher = better substrate or ligand; peptides without Tyr show the background
Classification field: 1.0 = SH2 binding enrichment at or over 0.9; 0.0 = SH2 binding enrichment under 0.9.

LYDPDYMKVIL [CYP4A22_Y104]	0.0
QNTGVYYDLYG [PTPN11_Y62_D61V]	1.0
VFSIDYFRVGG [NTRK2_Y706_T704I_YF]	1.0
NFDLDYDSVQP [MYC_Y16_YF]	0.0
ILTLKYPIEHG [ACTA1_Y71]	0.0
IFRASYVPFAA [RBM47_Y541_G538R_YF]	0.0
GKLIFYDLRGE [KARS1_Y145]	1.0
VNTTLYEKFTF [TEK_Y1108_YF]	1.0
GGSTFYIDTNA [ACTL6A_Y69_P66S_YF]	0.0
NLNGKYFKPRA [ANGPTL3_Y417_N418Y_YF]	1.0
ARSMEYLAEQK [MST1R_Y1198]	0.0
EMFNPYYGLFE [NEDD4L_Y679]	1.0
ALTDNYMFVVI [HAGH_Y61_L64V_YF]	0.0
KPEKTYGLRKE [CEP43_Y267]	1.0
KQLFAYKMLMA [TMC2_Y209_YF]	1.0

----------
Molecular target: Grb2 SH2 (UniProt P62993)
Assay: SH2 binding enrichment of the phosphorylated peptide, bacterial display (enrichment ratio); higher = better substrate or ligand; peptides without Tyr show the background
// false strictly below 0.8 in SH2 binding enrichment; true otherwise

PVGDAYKKKGL [NMNAT1_Y55]	true
GMSQAYSSSQR [DES_Y5]	false
EKSREYDRLYE [PIK3R1_Y463]	true
IPGMEYLVSII [TNC_Y1775_V1773M]	true
SSREEYFIGGG [GYPC_Y126_K124E]	true
ALECLYRREKR [TEKT5_Y195_H196R]	false
PEAALYGRFTI [FYN_Y440]	false
